src = patent US20200024354A1

Reported pIC50 by item:
# assay-target: T1, recombinant human BAFF-Fc (Sino Biological) (human, UniProt Q9Y275 134-285)
# T1 construct: Bought reagent; also called hBAFF; not shown: Fc moiety detected by anti-human Fc
# T1 sequence (Q9Y275 134-285): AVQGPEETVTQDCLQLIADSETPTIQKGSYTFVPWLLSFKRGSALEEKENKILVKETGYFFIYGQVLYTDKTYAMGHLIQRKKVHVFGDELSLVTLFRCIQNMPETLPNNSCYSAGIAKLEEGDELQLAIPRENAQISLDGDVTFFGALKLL
# method: blocking ELISA, VNAR diluted with 0.5 nM BAFF-Fc; binding of BAFF-Fc to coated TACI
pIC50: −log10 of the molar value.
endpoint: pIC50

{"binder": "ID2-101A05 (VNAR, Nurse shark VNAR single domain, tested as monomer) VNAR: AARVDQTPQTITKETGESLTINCVLRDNNCALSTTYWYRKKSGSTNEENISKGGRYVETVNSGSKSFSLRINDLTVEDSGTYRCKVSKDWLLCRDRGRRETDVYGDGTAVTVNA", "recorded-measurement": 7.24}
{"binder": "ID2-101B07 (VNAR, Nurse shark VNAR single domain, monomer) VNAR: AARVDQTPRSVTKETGESLTINCVLRDSICALSSTHWYRKKSGSTNEESISKGGRYVETVNSGSKSFSLRINDLTVEDSGTYRCKVHGGRSTGLCGDVLLAGDVYGGGTAVTVNA", "recorded-measurement": 7.62}
{"binder": "ID2-101B10 (VNAR, Nurse shark VNAR single domain, monomer) VNAR: AARVDQTPQTITKETGESLTINCVLRDSNCALSSTYWYRKKSGSTNEESISKGGRYVETVNSGSKSFSLRINDLTVEDSGTYRCKVRIDPLLCNASYVKWDDVYGGGTVVTVNA", "recorded-measurement": 7.85}
{"binder": "ID2-101A09 (VNAR, Nurse shark VNAR single domain, monomer) VNAR: AARVDQTPQTITKETGESLTINCVLRDNNCALSTTYWYRKKSGSTNEESISKGGRYVETVNSGSKSFSLRINDLTVEDSGTYRCKVREDPLMCRYYLDRYRDVYGGGTVVTVNA", "recorded-measurement": 7.57}
{"binder": "ID2-101A07 (VNAR, Nurse shark VNAR single domain, tested as monomer) VNAR: AARVDQTPQTITKETGESLTINCVLRDSNCALSNLYWYRKKSGSTNEESISLGGRYVETVNSGSKSFSLRINDLTVEDSGTYRCKVQLPYDPLTKECILGRMDVYGDGTAVTVNA", "recorded-measurement": 7.08}
